Target: human PTH1 receptor (Homo sapiens, UniProt Q03431)
Sequence (Q03431 27-593): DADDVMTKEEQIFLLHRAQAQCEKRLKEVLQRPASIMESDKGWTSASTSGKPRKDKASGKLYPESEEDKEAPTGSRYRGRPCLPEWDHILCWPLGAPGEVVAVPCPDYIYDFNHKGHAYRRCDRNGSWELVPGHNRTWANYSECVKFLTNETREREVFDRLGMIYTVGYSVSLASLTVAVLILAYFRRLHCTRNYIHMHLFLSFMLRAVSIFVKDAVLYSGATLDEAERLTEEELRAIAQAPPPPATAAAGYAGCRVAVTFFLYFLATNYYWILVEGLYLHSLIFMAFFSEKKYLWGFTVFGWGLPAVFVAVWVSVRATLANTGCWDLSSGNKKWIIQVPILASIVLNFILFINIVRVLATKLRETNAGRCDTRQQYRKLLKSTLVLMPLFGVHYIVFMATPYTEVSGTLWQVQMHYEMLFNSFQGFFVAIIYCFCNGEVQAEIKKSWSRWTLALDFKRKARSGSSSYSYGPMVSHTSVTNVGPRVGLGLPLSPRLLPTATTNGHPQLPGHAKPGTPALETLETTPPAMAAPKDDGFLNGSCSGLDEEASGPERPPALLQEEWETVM
Experiment: In vitro cAMP signal activity in HKRK-B7 cells (LLC-PK1 cells overexpressing the human PTH1 receptor)
Type: cell-based
Settings: HKRK-B7 cells; compound at 1×10^−3 M; cAMP produced as percentage of that produced by hPTH(1-34) at 100 nM
reported endpoint: cAMP production activity (%)

>>> numeric_value("Cc1cc(C(=O)N2CCC(O)(CO)CC2)cc(C)c1/C=C/S(=O)(=O)N1CCC2(CC1)N=C(c1cccc(C(F)(F)F)c1)NC2=O")
86
>>> numeric_value("Cc1cc(NCCO)ccc1CCS(=O)(=O)N1CCC2(CC1)N=C(c1ccc(C(F)(F)F)cc1)NC2=O")
69
>>> numeric_value("CNc1cc(C)c(/C=C/[S@TB3](=O)(=O)N2CCC3(CC2)N=C(CCCCCCCCCCCNC(=O)OC(C)(C)C)NC3=O)c(C)c1")
58
>>> numeric_value("Cc1c(O)cccc1/C=C/S(=O)(=O)N1CCC2(CC1)N=C(c1cccc(OC(F)(F)F)c1)NC2=O")
83
>>> numeric_value("CC(=O)NNC(=O)c1cc(C)c(CCS(=O)(=O)N2CCC3(CC2)N=C(C2CCC(CCC(F)(F)F)CC2)NC3=O)c(C)c1 (stereo not shown)")
55
>>> numeric_value("Cc1cc(C(=O)N2CC3(COC3)C2)cc(C)c1/C=C/S(=O)(=O)N1CCC2(CC1)N=C(c1ccc(F)c(C(F)(F)F)c1)NC2=O")
44
>>> numeric_value("Cc1cc(N(C)C(N)=O)cc(C)c1CCS(=O)(=O)N1CCC2(CC1)N=C(CCCCCCC(F)(F)F)NC2=O")
106
>>> numeric_value("[2H]C([2H])([2H])N(C(N)=O)c1cc(C)c(/C=C/S(=O)(=O)N2CCC3(CC2)N=C(c2ccc(F)c(C(F)(F)F)c2)NC3=O)c(C)c1")
105
>>> numeric_value("O=C1NC(C2CCCCC2)=NC12CCN(S(=O)(=O)/C=C/c1ccc(S(=O)(=O)N(CCO)CCO)cc1C(F)(F)F)CC2")
24
>>> numeric_value("Cc1cc(N(C)C(N)=O)cc(C)c1/C=C/S(=O)(=O)N1CCC2(CC1)N=C(CCCCCCCCC1(C)COC1)NC2=O")
92
>>> numeric_value("Cc1cc2ccc1CCS(=O)(=O)N1CCC3(CC1)N=C(NC3=O)c1cc(cc(C(F)(F)F)c1)OCC/C=C/CO[C@H]1CN(C[C@@H]1O)C2=O")
29
>>> numeric_value("Cc1cc(C(=O)N2CCC(C)(O)CC2)cc(C)c1/C=C/S(=O)(=O)N1CCC2(CC1)N=C(c1cccc(OC(F)(F)C(F)F)c1)NC2=O")
76
>>> numeric_value("COCCN(C(C)=O)c1cc(C)c(CCS(=O)(=O)N2CCC3(CC2)N=C(C2CCC(CCC(F)(F)F)CC2)NC3=O)c(C)c1 (stereo not shown)")
79
>>> numeric_value("Cc1cc(N(C)C(N)=O)cc(C)c1CCS(=O)(=O)N1CCC2(CC1)N=C(CCCCCCCCCCCO)NC2=O")
104
>>> numeric_value("Cc1cc(C(=O)N2C[C@@H](C)O[C@@H](C)C2)ccc1CCS(=O)(=O)N1CCC2(CC1)N=C(c1cccc(OC(F)(F)F)c1)NC2=O")
51
>>> numeric_value("Cc1cc(C(=O)N2CCN(CCN3CCOCC3)CC2)ccc1CCS(=O)(=O)N1CCC2(CC1)N=C(c1cccc(C(F)(F)F)c1)NC2=O")
67
>>> numeric_value("CCCCC#CCCCC1=NC2(CCN(S(=O)(=O)CCc3c(C)cc(N(C)C(N)=O)cc3C)CC2)C(=O)N1")
53
>>> numeric_value("Cc1cc(C(=O)N(C)C)ccc1CCS(=O)(=O)N1CCC2(CC1)N=C(C1CCC(C(F)(F)F)CC1)NC2=O (stereo not shown)")
79
>>> numeric_value("Cc1cc2ccc1CCS(=O)(=O)N1CCC3(CC1)N=C(NC3=O)c1ccc(C(F)(F)F)c(c1)OCCCC=COCCN(C)C2=O")
15
>>> numeric_value("O=C1NC(c2cccc(C(F)(F)F)c2)=NC12CCN(S(=O)(=O)c1cccc(Cl)c1)CC2")
41
>>> numeric_value("Cc1cc(C(=O)N2CCN(CCF)CC2)cc(C)c1/C=C/S(=O)(=O)N1CCC2(CC1)N=C(C1CCC(CCC(F)(F)F)CC1)NC2=O (stereo not shown)")
86
>>> numeric_value("Cc1cc(CN(C)C(=O)OC(C)(C)C)ccc1CCS(=O)(=O)N1CCC2(CC1)N=C(C1CCCCC1)NC2=O")
27
>>> numeric_value("Cc1cc(N2C(=O)CCC2CO)ccc1/C=C/S(=O)(=O)N1CCC2(CC1)N=C(c1cccc(C(F)(F)F)c1)NC2=O (stereo in doubt)")
103
>>> numeric_value("Cc1cc(C(=O)N2CCC(O)(CF)CC2)cc(C)c1/C=C/S(=O)(=O)N1CCC2(CC1)N=C(c1ccc(C(F)(F)F)c(OC(C)(C)C(F)(F)F)c1)NC2=O")
96
>>> numeric_value("Cc1cc(N(C)C(=O)OCCO)cc(C)c1/C=C/S(=O)(=O)N1CCC2(CC1)N=C(c1cccc(OC(F)(F)F)c1)NC2=O")
87
